- Procedure Summary: Nitrite content (ion chromatography; LC-FLD with DAN derivatisation; Griess test) in drug substance, intermediates, reagents, solvents, filters, excipients
- Type: physicochemical
- Set-up: unit: ppm
- Experimental Context: drug substance manufactured at Menges, T0
Measurement Type: Nitrite content T0 (enhanced method)

Compound: CN(C)C(=O)c1cc2cnc(Nc3ccc(N4CCNCC4)cn3)nc2n1C1CCCC1.O=C(O)CCC(=O)O [Batch B695106]
Nitrite content T0 (enhanced method): 0.1

P = CN(C)C(=O)c1cc2cnc(Nc3ccc(N4CCNCC4)cn3)nc2n1C1CCCC1.O=C(O)CCC(=O)O [Batch B692472]
Q = CN(C)C(=O)c1cc2cnc(Nc3ccc(N4CCNCC4)cn3)nc2n1C1CCCC1.O=C(O)CCC(=O)O [Batch B695104]
Lower value for measured Nitrite content T0 (enhanced method)? Options: P , Q Write down the label attached to your selection.
P
(P: 0.1, Q: 0.5)

====

- Procedure Summary: DMP433 (N-nitroso-ribociclib) content in ribociclib base (B10) and ribociclib succinate (B12, drug substance) batches and process experiments, LC-MS/MS or HPLC-HRMS
- Type: physicochemical
- Experimental Context: LEE011-B10, laboratory scale 30 g experiments
Measurement Type: DMP433 (LOQ: 30 ppb)

Compound: CN(C)C(=O)c1cc2cnc(Nc3ccc(N4CCNCC4)cn3)nc2n1C1CCCC1 [Batch 805193A096]
Value Units: ppb
Test Result: 70.5
//
Compound: CN(C)C(=O)c1cc2cnc(Nc3ccc(N4CCNCC4)cn3)nc2n1C1CCCC1 [Batch 805193A095]
Value Units: ppb
Test Result: 55.8
//
Compound: CN(C)C(=O)c1cc2cnc(Nc3ccc(N4CCNCC4)cn3)nc2n1C1CCCC1 [Batch 805193A097]
Value Units: ppb
Test Result: 73.9
//
Compound: CN(C)C(=O)c1cc2cnc(Nc3ccc(N4CCNCC4)cn3)nc2n1C1CCCC1 [Batch 805193A098]
Value Units: ppb
Test Result: 78.8

====

- Procedure Summary: DMP433 (N-nitroso-ribociclib) content in ribociclib base (B10) and ribociclib succinate (B12, drug substance) batches and process experiments, LC-MS/MS or HPLC-HRMS
- Assay type: physicochemical
- Experimental Context: additional batches of ribociclib base LEE011-B10 (IP-1)
Measurement Type: DMP433 [ppb] (ppb)

Compound: CN(C)C(=O)c1cc2cnc(Nc3ccc(N4CCNCC4)cn3)nc2n1C1CCCC1 [Batch B704193]
DMP433 [ppb], ppb: 57

1 = CN(C)C(=O)c1cc2cnc(Nc3ccc(N4CCNCC4)cn3)nc2n1C1CCCC1 [Batch 805193A077]
2 = CN(C)C(=O)c1cc2cnc(Nc3ccc(N4CCNCC4)cn3)nc2n1C1CCCC1 [Batch 805193A078]
3 = CN(C)C(=O)c1cc2cnc(Nc3ccc(N4CCNCC4)cn3)nc2n1C1CCCC1 [Batch B705468]
Order each entry by recorded DMP433 [ppb], climbing from the minimum. Please respond by ranking the labels in the order requested.
1, 2, 3
(1: 51 ppb, 2: 78 ppb, 3: 130 ppb)

====

- Procedure Summary: Nitrite content (ion chromatography; LC-FLD with DAN derivatisation; Griess test) in drug substance, intermediates, reagents, solvents, filters, excipients
- Assay type: physicochemical
- Experimental Context: ribociclib succinate drug substance batches at release
- Source text: The method of testing for the presence and/or total amount of nitrites that is used in the methods of the invention may be any method which allows for the detection and/or quantitation of nitrites in a composition. For example, the method may be the Griess test. […] The Griess test involves two subsequent reactions, as shown in the scheme below. […] Using a spectrophotometer, the nitrite concentration can then be quantitatively detected. […]
Measurement Type: Nitrite NAP method (ppm)

Molecule: CN(C)C(=O)c1cc2cnc(Nc3ccc(N4CCNCC4)cn3)nc2n1C1CCCC1.O=C(O)CCC(=O)O [Batch B695106]
Nitrite NAP method (ppm): 0.2
//
Molecule: CN(C)C(=O)c1cc2cnc(Nc3ccc(N4CCNCC4)cn3)nc2n1C1CCCC1.O=C(O)CCC(=O)O [Batch B696588]
Nitrite NAP method (ppm): 0.2
//
Molecule: CN(C)C(=O)c1cc2cnc(Nc3ccc(N4CCNCC4)cn3)nc2n1C1CCCC1.O=C(O)CCC(=O)O [Batch B696590]
Nitrite NAP method (ppm): 0.3
//
Molecule: CN(C)C(=O)c1cc2cnc(Nc3ccc(N4CCNCC4)cn3)nc2n1C1CCCC1.O=C(O)CCC(=O)O [Batch B709049]
Nitrite NAP method (ppm): 0.2
//
Molecule: CN(C)C(=O)c1cc2cnc(Nc3ccc(N4CCNCC4)cn3)nc2n1C1CCCC1.O=C(O)CCC(=O)O [Batch B698295]
Nitrite NAP method (ppm): 0.3

A = CN(C)C(=O)c1cc2cnc(Nc3ccc(N4CCNCC4)cn3)nc2n1C1CCCC1.O=C(O)CCC(=O)O [Batch B709050]
B = CN(C)C(=O)c1cc2cnc(Nc3ccc(N4CCNCC4)cn3)nc2n1C1CCCC1.O=C(O)CCC(=O)O [Batch B709941]
Rank A against B by their Nitrite NAP method (ppm) values and give the higher one. Give the label of your selection.
A
(A: 0.2 ppm, B: 0.1 ppm)

====

- Procedure Summary: Nitrite content (ion chromatography; LC-FLD with DAN derivatisation; Griess test) in drug substance, intermediates, reagents, solvents, filters, excipients
- Format: physicochemical
- Experimental Context: ribociclib succinate drug substance batches at release; manufacturer Raybow - DS04
Measurement Type: Nitrite NAT enhanced sample prep. (ppm)

P = CN(C)C(=O)c1cc2cnc(Nc3ccc(N4CCNCC4)cn3)nc2n1C1CCCC1.O=C(O)CCC(=O)O [RIBOCICLIB SUCCINATE 833268R008]
Q = CN(C)C(=O)c1cc2cnc(Nc3ccc(N4CCNCC4)cn3)nc2n1C1CCCC1.O=C(O)CCC(=O)O [RIBOCICLIB SUCCINATE 833268A202]
Given the listed items, does P or Q have the lesser reported Nitrite NAT enhanced sample prep. (ppm)? Respond with the label that goes with your answer.
Q
(Q: 0.1 ppm, P: 0.3 ppm)

====

- Procedure Summary: DMP433 (N-nitroso-ribociclib) content in ribociclib base (B10) and ribociclib succinate (B12, drug substance) batches and process experiments, LC-MS/MS or HPLC-HRMS
- Type: physicochemical
- Experimental Context: ribociclib base (LEE011 B10)
Measurement Type: DMP433 [ppm], result in brackets (extrapolation, estimate of actual value below LOQ) (ppm)

Molecule: CN(C)C(=O)c1cc2cnc(Nc3ccc(N4CCNCC4)cn3)nc2n1C1CCCC1 [Batch B705465]
Test Result: 0.037

Molecule: CN(C)C(=O)c1cc2cnc(Nc3ccc(N4CCNCC4)cn3)nc2n1C1CCCC1 [Batch B704193]
Test Result: 0.006

A = CN(C)C(=O)c1cc2cnc(Nc3ccc(N4CCNCC4)cn3)nc2n1C1CCCC1 [Batch 805193A074]
B = CN(C)C(=O)c1cc2cnc(Nc3ccc(N4CCNCC4)cn3)nc2n1C1CCCC1 [Batch B704194]
Would you kindly point out which of A and B has the smaller DMP433 [ppm], result in brackets (extrapolation, estimate of actual value below LOQ) figure? Output the label that corresponds to your choice.
B

====

- Procedure Summary: Range-finding oral toxicity study of DMP433 (Labcorp Study Number 8526660)
- Format: in vivo, mouse
- Experimental Context: both sexes, Muta™ Mouse, mouse, in vivo; oral, daily; read-out: maximum tolerated dose level (MTD)
Measurement Type: MTD (mg/kg/day)
Could you give me the number in mg/kg/day? Just the number is fine.

Need MTD, item CN(C)C(=O)c1cc2cnc(Nc3ccc(N4CCN(N=O)CC4)cn3)nc2n1C1CCCC1
100

====

- Procedure Summary: Nitrite content (ion chromatography; LC-FLD with DAN derivatisation; Griess test) in drug substance, intermediates, reagents, solvents, filters, excipients
- Assay type: physicochemical
- Experimental Context: ribociclib succinate drug substance batches at release
Measurement Type: Nitrite NAT enhanced sample prep. (ppm)

Sample records with Nitrite NAT enhanced sample prep. (ppm):
Molecule: CN(C)C(=O)c1cc2cnc(Nc3ccc(N4CCNCC4)cn3)nc2n1C1CCCC1.O=C(O)CCC(=O)O [Batch B709050]
Value Units: ppm
Nitrite NAT enhanced sample prep. (ppm): 0.1
//
Molecule: CN(C)C(=O)c1cc2cnc(Nc3ccc(N4CCNCC4)cn3)nc2n1C1CCCC1.O=C(O)CCC(=O)O [Batch B707657]
Value Units: ppm
Nitrite NAT enhanced sample prep. (ppm): 0.1
//
Molecule: CN(C)C(=O)c1cc2cnc(Nc3ccc(N4CCNCC4)cn3)nc2n1C1CCCC1.O=C(O)CCC(=O)O [Batch B711867]
Value Units: ppm
Nitrite NAT enhanced sample prep. (ppm): 0.1

P = CN(C)C(=O)c1cc2cnc(Nc3ccc(N4CCNCC4)cn3)nc2n1C1CCCC1.O=C(O)CCC(=O)O [Batch B692472]
Q = CN(C)C(=O)c1cc2cnc(Nc3ccc(N4CCNCC4)cn3)nc2n1C1CCCC1.O=C(O)CCC(=O)O [Batch B711440]
R = CN(C)C(=O)c1cc2cnc(Nc3ccc(N4CCNCC4)cn3)nc2n1C1CCCC1.O=C(O)CCC(=O)O [Batch B698294]
Kindly order the items shown according to Nitrite NAT enhanced sample prep. (ppm), from the highest value down. Record the ranking as a list of labels in the requested order.
Q, R, P
